Tested on: SNB-19 CNS
Experiment: NCI-60 one-dose screen, 48 h (100 = growth as untreated, 0 = no growth, -100 = all killed)
Settings: 10 µM unless noted
Compounds without any hit were thinned out: in the full panel of roughly 83,000, 20% have a hit.
VALUE KIND: growth (%)
One number for each entry, in %.

Known growth results, listed for orientation:
Cc1nc2ccc(Nc3nc(Cl)nc(N4CCOCC4)n3)cc2n1Cc1ccccc1 on SNB-19 CNS gives growth = 94.6

Reported SNB-19 CNS growth for item COc1cc(-c2nc(-c3nc4cc(C(=O)c5ccccc5)ccc4[nH]3)cc3c2[nH]c2ccccc23)cc(OC)c1OC was 103

Tested on SNB-19 CNS, the item COc1ccc(C2C3CCc4ccccc4C3=NN2C(=O)c2cc(OC)c(OC)c(OC)c2)cc1O (centres undefined) showed growth equal to 109

Form field, growth with SNB-19 CNS, item CCCOC(=O)C1c2cc3c(cc2CC(C)C1C(=O)OCCC)OCO3 (centres undefined) : 98.9

Form field, growth with SNB-19 CNS, item CCc1ccc(Nc2ncnc3c2cnn3-c2cccc(Br)c2)cc1 : 95.3

growth value, target or system SNB-19 CNS, for Cc1cc(O)c(C2=NN(c3ccc(S(N)(=O)=O)cc3)C(c3ccc(Cl)cc3)C2)c(C)c1Cl (centres undefined) : 89.8

// compound CN1CCN(Cc2ccc(NC(=O)c3cncc(C#Cc4ccc(N)nc4)c3)cc2C(F)(F)F)CC1 , assay SNB-19 CNS, growth value: 37.2

SNB-19 CNS data for COc1ccc([C@@H]2[C@@H](Cl)C(=O)N2c2cc(OC)c(OC)c(OC)c2)cc1C ; its growth: 33.6

Now take the following compound into account.
Case COc1ccccc1/C=N\NC(=S)Nc1ccc(F)cc1 , SNB-19 CNS, growth recorded as 89.1

---

System: NCI-H226 lung
Assay: NCI-60 one-dose screen, 48 h
Conditions: 10 µM unless noted
This is part of a sample that, as a whole, favours compounds with a hit. Of some 83,000 tested, about 20% had one in any assay. Calls of active or inactive are those of the source. Rule for the calls: active = growth percent below 10; inactive = the rest.
In this exercise, the only acceptable responses are active, inactive

Examples with answers:
Query string: Check the results log: what was the call for Nc1ccc(N(O)/C=C2\C=CC=CC2=O)cc1N ?
Result string: inactive

Query string: Entry Nc1nc2ccc([C@@H]3Nc4ccc5[nH]ncc5c4[C@H]4[C@H]5CCC(C5)[C@H]43)cc2s1 : call = ?
Result string: inactive

Query string: What call does the record list for COc1c(B(O)O)cccc1-c1nc2ccc3[nH]ncc3c2c2c1CCCC2 ?
Result string: active

Query string: Recorded test outcome, item COc1cccc2nc(Nc3cccc(NC(=O)c4ccc(N5CCN(C)CC5)c(C(F)(F)F)c4)c3)ccc12
Result string: inactive

Query string: Short answer needed: outcome of this test for CC(=O)Nc1nonc1-c1nc2ccccc2n1Cc1ccc(C(C)(C)C)cc1 ?
Result string: inactive

***
Query string: Returns: the outcome recorded for CCCc1n(Cc2ccc3ccccc3c2)c2ccccc2[n+]1Cc1ccc2ccccc2c1 in this assay.
Result string: active

Query string: Please let me know the test result on file for NC(N)=N/N=C\c1ccc(OCc2ccccc2)cc1 .
Result string: inactive

---

Tested on: EKVX NSCLC
Experiment: NCI-60 one-dose screen, 48 h (100 = growth as untreated, 0 = no growth, -100 = all killed)
Conditions: 10 µM unless noted
Compounds without any hit were thinned out: in the full panel of roughly 83,000, 20% have a hit.
VALUE KIND: growth (%)
One number for each entry, in %.

Items follow; give growth for each.
1. COc1c(B(O)O)cccc1-c1nc2ccc3[nH]ncc3c2c2c1CCCC2
2. Oc1[nH]c2ccc(Cl)cc2c1/C=c1/ccc2c(c1)N=C(c1ccc(F)cc1)N=2
3. COc1c(B(O)O)cccc1-c1nc2c(F)cc3n[nH]c(C)c3c2c2c1CCCC2
4. CN1CCN(Cc2ccc(NC(=O)c3cncc(C#Cc4ncc5cnccn45)c3)cc2C(F)(F)F)CC1
5. CC[C@H](Nc1nc(N)nc(C2CC2)c1C#N)c1nc2cccc(NCc3ccc(C(=O)NO)cc3)c2c(=O)n1-c1ccccc1

Result string:
1: 23.6; 2: 40.4; 3: 34.8; 4: 77.2; 5: 0.322

Can you give me growth for all of these, one by one?
1. CC[C@H](Nc1nc(C)nc(N)c1C#N)c1nc2cccc(NCc3ccc(C(=O)NO)cc3)c2c(=O)n1-c1ccccc1
2. Fc1ccc(-c2nnc(N3CCOCC3)c3ccccc23)cc1
3. Cc1nc2c(-c3cnc(N)nc3)nc(N3CCOCC3)nc2n1C(C)C
4. COc1cc(C2=NOC(c3cc(OC)c(OC)c(OC)c3)C2)ccc1OCCCCOc1cc2c(cc1OC)C(=O)N1CCC[C@H]1C=N2 (some centres undefined)
5. COc1cc(/C=C/C(=O)c2c(C)nc3ccccc3c2C)ccc1OCCCOc1cc2c(cc1OC)C(=O)N1CCC[C@H]1C=N2
6. O=C1C2=C(C(=O)c3c(O)ccc(O)c31)N(c1ccc(N3CCOCC3)nc1)Cc1ccccc1O2
7. COc1ccc(/C=C(/C(=O)N2CCN(c3ccccc3)CC2)c2cc(OC)c(OC)c(OC)c2)cc1N
8. COCCn1c(Nc2ccc(C(=O)NO)cc2)nc2ccccc21

Result string:
1. 12.7
2. 69.5
3. 9.04
4. -39.6
5. -76.4
6. -9.79
7. 41.1
8. 56.5

Record growth per entry; entries follow.
1. O=C(NC1CC1)c1ccc(-c2nc3ccc4[nH]ncc4c3c3c2CCCC3)cc1
2. N#Cc1c(NN)n(C2OC(CO)C(O)C2O)c2ncnc(N)c12 (centres undefined)
3. N#Cc1nc(-c2ccc(Cl)cc2)cc(-c2ccc(Nc3nc(N4CCCCC4)nc(N4CCCCC4)n3)cc2)c1N
4. COc1ccc(/C=C/C(=O)c2ccc(NC(=O)CSc3nnc(-c4ccc(Cl)cc4)n3-c3ccccc3)cc2)cc1
5. CCOC(=O)C1=C(C)NC(SCc2nnc(-c3ccc(Cl)cc3)o2)=NC1c1ccc(Br)cc1 (centres undefined)
6. C=CCn1c(SCC(=O)Nc2ccc(/C(C)=N\O)cc2)nnc1-c1cc(-c2ccc(Cl)cc2)nc2ccccc12

Result string:
55.6
-0.0983
91.8
89.4
71.3
32

---

Test system: OVCAR-4 ovarian
Assay: NCI-60 one-dose screen, 48 h (100 = growth as untreated, 0 = no growth, -100 = all killed)
Settings: 10 µM unless noted
This is part of a sample that, as a whole, favours compounds with a hit. Of some 83,000 tested, about 20% had one in any assay.
Threshold rule: growth greater than or equal to 80% is Met; below that, Not met.

As a guide, the following entries are already answered.
Query string: I'd appreciate it if you could say whether COc1cc(/C=C/C(=O)c2ccc(NC(=O)CSc3nnc(-c4ccc(Cl)cc4)n3-c3ccccc3)cc2)cc(OC)c1OC has growth at least equal to 80%.
Result string: Not met

Query string: Answer whether growth of NS(=O)(=O)c1ccc(N2N=C(c3ccc(Br)cc3)CC2c2cn(-c3ccccc3)nc2-c2ccc(Cl)cc2)cc1 (stereo not given) is greater than or equal to 80%.
Result string: Met

Query string: Could you verify whether the entry CCCc1n(Cc2ccc3ccccc3n2)cc[n+]1Cc1ccc2ccccc2n1 shows growth of no less than 80%?
Result string: Not met

Query string: Reported growth reaches at least 80% for Clc1ccccc1Nc1nnc(-c2ccncc2)s1 ?
Result string: Met

Query string: Is reported growth greater than or equal to 80% here: CN(C)CCOc1nc2c3ccncc3cc(-c3cccc(Cl)c3)c2c2cnccc12
Result string: Not met

Query string: Threshold query (growth >= 80%) on COc1cc(C)c2c(=O)c3c(oc2c1)C(=O)c1c(O)c(OC)cc(O)c1C3=O
Result string: Not met

New cases:
Query string: Test whether the compound CC(=O)OC1Oc2cc(C)c(C)cc2-c2oc(=O)c(-c3ccc(F)cc3)cc21 (stereo not given) records growth of 80% or higher.
Result string: Not met

Query string: # bool: growth of O=C1/C(=C\c2cccn2Cc2ccc(F)cc2)c2ccccc2N1c1c(Cl)cccc1Cl >= 80%
Result string: Not met

---

System: BT-549 breast
Test: NCI-60 one-dose screen, 48 h (100 = growth as untreated, 0 = no growth, -100 = all killed)
Conditions: 10 µM unless noted
Protocol: Growth inhibition of the BT-549 human tumor cell line is measured as a screen for anti-cancer activity. Cells are grown in 96 well plates and exposed to the test compound for 48 hours. Compounds are tested at a single concentration, which is 10^-5 M for most compounds. The reported endpoint is percent growth (GI% or GIPRCNT), where numbers from 0 - 100% represent growth inhibition, and numbers from -100% - 0 represent cell death. For example, a value of 40 represents 60% growth inhibition. […]
About 83,000 compounds went through this panel and 20% of them were active in at least one assay; those are over-represented in the sample as a whole.
VALUE KIND: growth (%)
One number for each entry, in %.

response.value for CCCCCCCCCCCCCC[N+](C)(C)CCCCCCCCCCCCCC (field: growth) = 92.3

The measured growth associated with COc1cccc(CC(C)=C(c2ccc(OCCCN(C)C)cc2)c2ccc(OCCCN(C)C)cc2)c1 reads 55.3

compound CCOC(=O)c1ccc(NCCC(=O)O)cc1 , growth observed: 110

# map each compound to its growth
1. C/C(=N\OC(=O)Nc1ccccc1)c1ccccc1
2. Cc1nn(-c2ccc(Cl)cc2)c(=O)n1CCN1CCOCC1
3. COc1ccc(/C=C/C(=O)c2ccc(NC(=O)CSc3nnc(-c4ccc(OC)cc4)n3-c3ccccc3)cc2)cc1
4. CCCCCCCCCCCCCCCCS(=O)(=O)Nc1cc(C(=O)NN)cc(C(=O)NN)c1
5. CCCCCCCCCCCCCCCCOc1ccc(S(=O)(=O)N(C)C)cc1[N+](=O)[O-]
6. Cc1nc2n[nH]c(N)c2nc1C
7. CNC(=O)c1ccccc1Sc1ccc2c(/C=C/c3ccccn3)n[nH]c2c1
8. Fc1ccc2c(CN3CCO[C@H](COc4cccc(Cl)c4)C3)c[nH]c2c1

Result string:
1. 99.9
2. 61.5
3. 99.7
4. 61.5
5. 97.4
6. 118
7. 16.2
8. 57.7
